- ASSAY PROTOCOL: Inhibition of HMG-coA reductase in CD rat liver microsomal-cytosol fraction assessed as inhibition of fatty acid synthesis using [2-14C]acetate as substrate after 90 mins by scintillation counting analysis
pIC50: −log10 of the molar value.
MEASUREMENT NAME: pIC50

>>> number("CC(CCc1ccc(Oc2ccccc2)cc1)CC(=O)O (configuration not stated)")
4.10
>>> number("CC(CC(=O)O)CC(=O)c1ccc2sc3ccccc3c2c1 (configuration not stated)")
3.03
>>> number("CC(CCc1ccc2sc3ccccc3c2c1)CC(=O)O (configuration not stated)")
3.07
>>> number("CC(CCc1ccc(Sc2ccccc2)cc1)CC(=O)O (configuration not stated)")
4.00
>>> number("CC(CCc1ccc2c(c1)-c1ccccc1S2(=O)=O)CC(=O)O (configuration not stated)")
4.52
>>> number("CC(CC(=O)O)CC(=O)c1ccc(Oc2ccccc2)cc1 (configuration not stated)")
2.68
>>> number("CC(CC(=O)O)CC(=O)c1ccc2oc3ccccc3c2c1 (configuration not stated)")
3.37
>>> number("CC(CC(=O)O)CC(=O)c1ccc(-c2ccccc2)cc1 (configuration not stated)")
2.92
>>> number("CC(CCc1ccc2oc3ccccc3c2c1)CC(=O)O (configuration not stated)")
2.80
>>> number("CC(CCc1ccc(-c2ccccc2)cc1)CC(=O)O (configuration not stated)")
4.10
>>> number("CC(CC(=O)O)CC(=O)c1ccc(Sc2ccccc2)cc1 (configuration not stated)")
3.11
>>> number("CC(CCc1ccc(S(=O)(=O)c2ccccc2)cc1)CC(=O)O (configuration not stated)")
4.10

Sourced from BindingDB's records for doi:10.1021/jm00222a039
